Known half-life of a selection of molecules
Test: Half life in rat plasma
Type: ADME, cell-free
Please respond with the number in min and leave the unit unwritten.

>  <Item smiles>
CC(=O)O[C@@H]1C[C@H]2[C@H](O)/C=C/C(=O)O[C@@H](C)CCC/C=C/[C@@H]2C1

>  <Unit info>
min

>  <half-life>
30

$$$$

Fill in: half-life of COC(=O)CCCC(=O)O[C@@H]1C[C@H]2[C@H](O)/C=C/C(=O)O[C@@H](C)CCC/C=C/[C@@H]2C1 is ___ 3

----------
Test system: SF-539
Experiment: Antiproliferative activity against human SF539 cell line
Format: functional
Known GI50 of a selection of compounds
Please respond with the number in µM and leave the unit unwritten.

>  <Item smiles>
CC(=O)O[C@@H]1C[C@H]2[C@H](O)/C=C/C(=O)O[C@@H](C)CCC/C=C/[C@@H]2C1

>  <Numeric readout>
5.25

$$$$
>  <Item smiles>
C[C@H]1CCC/C=C/[C@@H]2C[C@H](O)C[C@H]2[C@H](OC(=O)CCCC(=O)O)/C=C/C(=O)O1

>  <Numeric readout>
31.6

$$$$
>  <Item smiles>
COC(=O)CCCC(=O)O[C@@H]1C[C@H]2[C@H](O)/C=C/C(=O)O[C@@H](C)CCC/C=C/[C@@H]2C1

>  <Numeric readout>
0.07

$$$$
>  <Item smiles>
COC(=O)CCCC(=O)O[C@@H]1/C=C/C(=O)O[C@@H](C)CCC/C=C/[C@@H]2C[C@H](O)C[C@H]21

>  <Numeric readout>
3.39

$$$$

Please tell me: GI50 of COC(=O)CCCC(=O)O[C@@H]1C[C@@H]2[C@H](/C=C/CCC[C@H](C)OC(=O)/C=C/[C@H]2OC(=O)CCCC(=O)OC)C1 , system SF-539? 5.01

Please tell me: GI50 of C[C@H]1CCC/C=C/[C@@H]2C[C@H](OC(=O)CCCC(=O)O)C[C@H]2[C@H](O)/C=C/C(=O)O1 , system SF-539? 22.4

Please tell me: GI50 of CC(=O)O[C@@H]1C[C@@H]2[C@H](/C=C/CCC[C@H](C)OC(=O)/C=C/[C@H]2OC(C)=O)C1 , system SF-539? 58.9
